Give measured logP (HCOOH) for each item. Keep answers brief.
procedure details: log P determination by HPLC on reversed-phase columns (C 18), analogously to OECD Guideline 117
Assay type: physicochemical
experimental setup: LC-MS in the acidic range, pH 2.7, 0.1% aqueous formic acid / acetonitrile, HPLC reversed-phase C 18
Answers are plain numbers.

Take a look at these entries with their results.
INSERT INTO results (molecule, endpoint, measured_number) VALUES
  ('Cc1ccc(-n2c(=O)n(C)c(=O)n2C(C)C)cc1SCC(F)(F)F [Example 61]', 'logP (HCOOH)', 3.33),
  ('Cn1c(=O)n(C2CC2)c(=O)n1-c1cc([S+]([O-])CC(F)(F)F)c(Br)cc1F (stereo not drawn) [Example 72]', 'logP (HCOOH)', 2.24),
  ('Cc1cc(F)c(-n2[nH]c(=O)n(C)c2=O)cc1SCC(F)(F)F [Example 55]', 'logP (HCOOH)', 2.09),
  ('CCn1c(=O)n(C)c(=O)n1-c1cc([S+]([O-])CC(F)(F)F)c(C)cc1F (stereo not drawn) [Example 98]', 'logP (HCOOH)', 1.93),
  ('CCn1c(=O)n(CC(F)(F)F)n(-c2cc(SCC(F)(F)F)c(C)cc2F)c1=O [Example 145]', 'logP (HCOOH)', 3.54),
  ('Cc1cc(F)c(-n2[nH]c(=O)n(-c3cccc(C(F)(F)F)c3)c2=O)cc1[S+]([O-])CC(F)(F)F (racemic) [Example 158]', 'logP (HCOOH)', 2.69),
  ('Cn1c(=O)n(C)n(-c2cc([S+]([O-])CC(F)(F)F)c(Br)cc2F)c1=O (stereo not drawn) [Example 69]', 'logP (HCOOH)', 2.01),
  ('Cn1c(=O)n(C2CC2)c(=O)n1-c1ccc(C(F)(F)F)c([S+]([O-])CC(F)(F)F)c1 (stereo not drawn) [Example 54]', 'logP (HCOOH)', 2.63),
  ('CCn1c(=O)n(C(C)(C)C)c(=O)n1-c1cc([S+]([O-])CC(F)(F)F)c(C)cc1F (stereo not drawn) [Example 137]', 'logP (HCOOH)', 3.02),
  ('Cc1cc(F)c(N2C(=O)C(=O)N(C(C)(C)C)C2=S)cc1SCC(F)(F)F [Example 193]', 'logP (HCOOH)', 4.50);

Hi team, please reply with logP (HCOOH) for each item in this list.
1. Cc1cc(F)c(N2CCN(C)C2=O)cc1[S+]([O-])CC(F)(F)F (racemic) [Example 199]
2. Cc1cc(F)c(-n2c(=O)n(C3CC3)c(=O)n2C)cc1SCC(F)(F)F [Example 128]

1: 1.76; 2: 3.49
